# subject_of_test: UniProt Q06418
# Sequence (Q06418 41-890): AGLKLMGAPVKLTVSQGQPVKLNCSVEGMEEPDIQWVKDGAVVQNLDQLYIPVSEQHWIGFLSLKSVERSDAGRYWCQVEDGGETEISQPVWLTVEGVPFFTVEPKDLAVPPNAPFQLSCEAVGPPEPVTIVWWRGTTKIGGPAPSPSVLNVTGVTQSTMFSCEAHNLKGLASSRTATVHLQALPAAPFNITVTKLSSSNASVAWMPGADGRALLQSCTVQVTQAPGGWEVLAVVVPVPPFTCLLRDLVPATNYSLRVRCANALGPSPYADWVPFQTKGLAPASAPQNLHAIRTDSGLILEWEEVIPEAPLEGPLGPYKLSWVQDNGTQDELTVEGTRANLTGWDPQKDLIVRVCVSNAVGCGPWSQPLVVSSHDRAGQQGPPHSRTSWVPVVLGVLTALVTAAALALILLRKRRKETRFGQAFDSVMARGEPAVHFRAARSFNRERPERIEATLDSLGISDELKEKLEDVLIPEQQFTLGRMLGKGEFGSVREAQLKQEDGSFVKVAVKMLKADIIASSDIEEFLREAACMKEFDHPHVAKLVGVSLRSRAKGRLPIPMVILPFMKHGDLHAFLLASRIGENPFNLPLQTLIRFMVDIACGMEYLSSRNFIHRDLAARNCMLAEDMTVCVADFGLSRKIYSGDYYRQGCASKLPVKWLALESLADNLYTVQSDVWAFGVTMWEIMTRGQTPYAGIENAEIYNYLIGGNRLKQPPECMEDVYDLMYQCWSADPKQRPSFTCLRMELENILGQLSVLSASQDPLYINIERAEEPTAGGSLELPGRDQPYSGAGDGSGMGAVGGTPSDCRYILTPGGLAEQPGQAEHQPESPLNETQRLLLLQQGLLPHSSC
pIC50: −log10 of the molar value.
Catalogue of molecules with associated pIC50

# molecule, pIC50
measured = [
    ("O[C@H]1CC[C@H](c2cnc(OC3CCNCC3)c3cnc(Nc4ccc(Cl)c(Cl)c4)nc32)CC1 [Compound 299]", "≥ 7.00"),
    ("COC[C@H](C)Nc1ncc2c(OC3CCOCC3)ncc(-c3ccc(N)nc3)c2n1 [Compound 337]", "6.00 to 7.00"),
    ("C[C@@H](CC(F)(F)F)Nc1ncc2c(O[C@H]3C[C@H](O)C3)ncc([C@H]3CC[C@H](O)CC3)c2n1 [Compound 364]", "≥ 7.00"),
    ("CCOc1ncc(C2CCN(C)CC2)c2nc(N[C@@H](C)CC)ncc12 [Compound 215]", "≥ 7.00"),
    ("C[C@@H](CF)Nc1ncc2c(OC3CC(C)(C)N(C)C(C)(C)C3)ncc([C@H]3CC[C@H](O)CC3)c2n1 [Compound 382]", "≥ 7.00"),
    ("CCC(C)Nc1ncc2c(OC3CCOCC3)ncc([C@H]3CC[C@H](O)CC3)c2n1 (some centres unmarked) [Compound 140]", "≥ 7.00"),
    ("CCOc1ncc(CC2CCNCC2)c2nc(N[C@@H](C)CC)ncc12 [Compound 236]", "6.00 to 7.00"),
    ("CCCC(C)Nc1ncc2c(N(C)C3CCNCC3)ncc([C@H]3CC[C@H](O)CC3)c2n1 (some centres unmarked) [Compound 179]", "≥ 7.00"),
]
